Data origin, for the record: ChEMBL document CHEMBL1127424

- Tested on: Staphylococcus aureus
- protocolText: In vitro minimum inhibitory concentration for Staphylococcus aureus ATCC 25178
- Format: functional
recordedMetric: MIC (µg/mL)
Give bare numbers, in µg/mL.

Check out these entries, answers already filled in.
CCn1cc(C(=O)O)c(=O)c2cc(F)c(N3C[C@@H](N)[C@@H]3C)c(F)c21 :: 0.25
CN[C@H]1CN(c2cc3c(cc2F)c(=O)c(C(=O)O)cn3C2CC2)[C@@H]1C :: 0.12
C[C@H]1[C@H](N)CN1c1cc2c(cc1F)c(=O)c(C(=O)O)cn2C(C)(C)C :: 0.25

// batch mode: one MIC value per listed entry
1. C[C@H]1[C@H](N)CN1c1nc2c(cc1F)c(=O)c(C(=O)O)cn2CCF
2. C[C@@H]1[C@@H](CN)CN1c1c(F)cc2c(=O)c(C(=O)O)cn(C3CC3)c2c1F

Result:
1. 1
2. 0.12
